Items are presented alongside their recorded IC50.
assayed target: 3',5'-cyclic-AMP phosphodiesterase 4D (Homo sapiens)
Sequence (Q08499 whole entry): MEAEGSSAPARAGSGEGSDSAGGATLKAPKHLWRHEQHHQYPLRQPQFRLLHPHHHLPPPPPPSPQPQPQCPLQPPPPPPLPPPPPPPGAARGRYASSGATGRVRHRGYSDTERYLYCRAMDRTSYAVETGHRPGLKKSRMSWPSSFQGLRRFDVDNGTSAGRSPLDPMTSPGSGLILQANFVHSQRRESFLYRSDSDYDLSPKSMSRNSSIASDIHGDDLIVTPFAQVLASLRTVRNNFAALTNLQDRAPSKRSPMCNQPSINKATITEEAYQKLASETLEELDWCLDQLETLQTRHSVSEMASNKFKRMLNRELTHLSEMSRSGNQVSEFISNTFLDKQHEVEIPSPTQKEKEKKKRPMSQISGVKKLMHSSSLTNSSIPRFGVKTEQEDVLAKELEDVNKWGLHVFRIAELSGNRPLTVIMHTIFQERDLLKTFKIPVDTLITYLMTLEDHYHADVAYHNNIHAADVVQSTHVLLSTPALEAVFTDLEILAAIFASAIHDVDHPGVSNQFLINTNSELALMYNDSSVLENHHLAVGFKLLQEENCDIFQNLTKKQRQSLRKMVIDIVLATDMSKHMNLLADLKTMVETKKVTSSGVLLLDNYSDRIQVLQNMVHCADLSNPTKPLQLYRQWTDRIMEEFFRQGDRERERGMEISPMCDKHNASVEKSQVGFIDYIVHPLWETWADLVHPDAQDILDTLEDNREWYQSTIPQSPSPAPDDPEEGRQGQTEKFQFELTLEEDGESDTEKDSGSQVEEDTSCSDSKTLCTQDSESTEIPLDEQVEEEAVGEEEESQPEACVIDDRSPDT
assay name: Inhibition of human PDE4D3 expressed in sf9 cells
recorded endpoint: IC50 (nM)

> print(dat)
                                   molecule                            assayed.target  result.number
1  Cn1c([S+](C)[O-])nc(-c2ccc(F)cc2)c1-c1ccnc(N)c1 (configuration not stated)  3',5'-cyclic-AMP phosphodiesterase 4D (Homo sapiens)            700
2  CC(=O)Nc1cc(-c2c(-c3ccc(F)cc3)nc([S+](C)[O-])n2C)ccn1 (configuration not stated)  3',5'-cyclic-AMP phosphodiesterase 4D (Homo sapiens)            800

---

Items are presented alongside their recorded IC50.
assayed target: 3',5'-cyclic-AMP phosphodiesterase 4D (Homo sapiens)
assay name: Inhibition of human PDE4D2 expressed in sf9 cells
recorded endpoint: IC50 (nM)

> print(dat)
                                   compound  recorded.endpoint  units.label  result.number
1  CC(=O)Nc1cc(-c2c(-c3ccc(F)cc3)nc([S+](C)[O-])n2C)ccn1 (configuration not stated)               IC50           nM           1100
2  Cn1c([S+](C)[O-])nc(-c2ccc(F)cc2)c1-c1ccnc(N)c1 (configuration not stated)               IC50           nM           2400

---

assay name: Half life in human at 30 mg, po administered as single dose
Assay type: ADME, organism-based
study conditions: in vivo
recorded endpoint: half-life (h)

> print(dat)
                                   compound  result.number
1  CC(=O)Nc1cc(-c2c(-c3ccc(F)cc3)nc([S+](C)[O-])n2C)ccn1 (configuration not stated)            3.4
2  Cn1c([S+](C)[O-])nc(-c2ccc(F)cc2)c1-c1ccnc(N)c1 (configuration not stated)           11.3

---

assay name: AUC (infinity) in human at 0.5 mg, po administered as single dose
Type: ADME, organism-based
Parameters: dose 0.5 mg, time infinity, route oral
study conditions: in vivo
recorded endpoint: AUC(0-inf) (µM·h)

> print(dat)
                           substance.smiles  recorded.endpoint  result.number
1  O=C(Nc1c(Cl)cncc1Cl)c1ccc(OC(F)F)c(OCC2CC2)c1         AUC(0-inf)         0.0868

---

assay name: Half life in mongrel dog at 30 mg/kg, po by LC-MS/MS analysis
Format: ADME, organism-based, Canis lupus familiaris
study conditions: in vivo
recorded endpoint: half-life (h)

> print(dat)
                                   compound  result.number
1  CC(=O)Nc1cc(-c2c(-c3ccc(F)cc3)nc([S+](C)[O-])n2C)ccn1 (stereo unspecified)           3.85

---

assay name: Tmax in human at 50 mg, po administered as single dose
Type: ADME, organism-based
study conditions: in vivo
recorded endpoint: Tmax (h)

> print(dat)
                                   compound  units.label  result.number
1  CC(=O)Nc1cc(-c2c(-c3ccc(F)cc3)nc([S+](C)[O-])n2C)ccn1 (configuration not stated)            h            1.5
2  Cn1c([S+](C)[O-])nc(-c2ccc(F)cc2)c1-c1ccnc(N)c1 (configuration not stated)            h              5

Sourced from ChEMBL document CHEMBL4028848
